Each item that follows carries a reported AUC.
Test: Phase 1 clinical study: plasma pharmacokinetics after ketamine transdermal patch
Conditions: human, plasma, other: transdermal patch, 20 mg, AUCall, Stage 1 (60 cm^2 patch, 24 h, low-dose); Median
API: value field is a number in ng·h/mL; no unit string.

{"COMPOUND": "CNC1(c2ccccc2Cl)CCCCC1=O (racemic) [Ketamine, ketamine]", "UNITS TEXT": "ng·h/mL", "AUC": 280}

As a next step, examine the compound that follows.
May I ask what AUC has been recorded for NC1(c2ccccc2Cl)CCCCC1=O (centres unmarked) [Norketamine, norketamine] ? 328

---

Each item that follows carries a reported AUC(0-inf).
Assay: Phase 1 clinical study: plasma pharmacokinetics after ketamine transdermal patch
Conditions: human, plasma, other: transdermal patch, 40 mg, AUCinf, Stage 3; Mean
API: value field is a number in ng·h/mL; no unit string.

{"MOLECULE": "NC1(c2ccccc2Cl)CCCCC1=O (centres unmarked)", "EXPERIMENTAL RESULT": 624}

May I ask what AUC(0-inf) has been recorded for CNC1(c2ccccc2Cl)CCCCC1=O (racemic) ? 423

---

Each item that follows carries a reported AUC.
Test: Phase 1 clinical study: plasma pharmacokinetics after ketamine transdermal patch
Details: human, plasma, other: transdermal patch, 40 mg, AUCall, Stage 3 (20 and 60 cm^2 patches, high-dose); Median
API: value field is a number in ng·h/mL; no unit string.

{"COMPOUND": "CNC1(c2ccccc2Cl)CCCCC1=O (racemic)", "AUC, ng·h/mL": 339}

As a next step, examine the compound that follows.
May I ask what AUC has been recorded for NC1(c2ccccc2Cl)CCCCC1=O (centres unmarked) ? 387

---

Experiment: Phase 1 clinical study: plasma pharmacokinetics after ketamine transdermal patch
Settings: human, plasma, other: transdermal patch, 20 mg, AUCinf, Stage 1; Median
Each item that follows carries a reported AUC(0-inf).
API: value field is a number in ng·h/mL; no unit string.

{"MOLECULE": "NC1(c2ccccc2Cl)CCCCC1=O (centres unmarked) [Norketamine, norketamine]", "READOUT LABEL": "AUC(0-inf)", "EXPERIMENTAL RESULT": 367}

As a next step, examine the molecule that follows.
May I ask what AUC(0-inf) has been recorded for CNC1(c2ccccc2Cl)CCCCC1=O (racemic) [Ketamine, ketamine] ? 274

---

Each item that follows carries a reported Cmax.
Assay: Phase 1 clinical study: plasma pharmacokinetics after ketamine transdermal patch
Conditions: human, plasma, other: transdermal patch, 40 mg, Cmax, Stage 3; Mean

{"COMPOUND": "CNC1(c2ccccc2Cl)CCCCC1=O (racemic)", "EXPERIMENTAL RESULT": "~14.4 ng/mL"}

May I ask what Cmax has been recorded for NC1(c2ccccc2Cl)CCCCC1=O (centres unmarked) ? 13.4 ng/mL

---

Assay: Phase 1 clinical study: plasma pharmacokinetics after ketamine transdermal patch
Conditions: human, plasma, other: transdermal patch, 40 mg, AUCall, Stage 3 (20 and 60 cm^2 patches, high-dose); Mean
READOUT LABEL: AUC (ng·h/mL)
API: value field is a number in ng·h/mL; no unit string.

{"COMPOUND": "CNC1(c2ccccc2Cl)CCCCC1=O (racemic)", "UNITS TEXT": "ng·h/mL", "AUC": 393}

May I ask what AUC has been recorded for NC1(c2ccccc2Cl)CCCCC1=O (centres unmarked) ? 486
